- System: SW480 CRC cell line
- ASSAY_METHOD_TEXT: SRB proliferation assay, 72 h
- Type: cell-based, human
- CONDITION_DETAILS: Homo sapiens; SW480; 72 hours; 0.05-5 μM; read-out: IC50, growth inhibition by PQIP (SRB)
REPORTED_METRIC: IC50

Prompt line: Return reported IC50. Input compound: CN1CCN([C@H]2C[C@@H](c3nc(-c4ccc5ccc(-c6ccccc6)nc5c4)c4c(N)nccn43)C2)CC1 [PQIP]
Response line: > 5 µM

# credit: patent US8163509B2
